# Test system: A549 NSCLC
# PROTOCOL: NCI tumour cell line growth inhibition, 48 h; in the data active = GI50 below about 0.43 µM; inactive = the rest
Possible outcomes: 1.0 (active), 0.0 (inactive)

SMILES RECORD	TGT	ANSWER LABEL
C=C(CN1C(=O)[C@H]2CCCN2C(=O)c2ccccc21)c1ccc(C(=O)O)cc1	A549 NSCLC	0.0
CCOc1ccc(-c2nonc2NC(=O)c2cccc(C)c2)cc1OCC	A549 NSCLC	0.0
N#Cc1nc2c(S(=O)(=O)c3ccccc3)c(N)n(Cc3cccnc3)c2nc1C#N	A549 NSCLC	0.0
COc1ccc(/C=C\c2cc(OC)c(OC)c(OC)c2)cc1OC(=O)c1cccc(Cn2cc(CCOC(=O)[C@H](N)Cc3cn(C)c4ccccc34)nn2)c1	A549 NSCLC	1.0
O=C1c2cc3c(cc2-c2c1c1ccc(Cl)cc1c(=O)n2CCCNCCO)OCO3	A549 NSCLC	1.0

* * *

Measured TGI of individual entries
# System: NCI-H460 lung
# PROTOCOL: NCI tumour cell line growth inhibition, 48 h

SMILES RECORD	TGI
CC(=O)Nc1ccc(NC(=O)c2c(Cl)c(Cl)c(Cl)c(Cl)c2-c2nc3ccccc3[nH]2)cc1	> 100 µM
Cc1ccc(NC(=O)CSc2nc(C)nc3c2sc(=S)n3-c2ccccc2)cc1	> 10 µM
O=C1/C(=C/c2ccccc2)CN(C(=O)c2cccnc2)C/C1=C\c1ccccc1	11 µM
COC(=O)c1sc2ncc3c(c2c1N)CCCCCC3	> 100 µM
O=NNc1ccc(S(=O)(=O)c2ccccc2)cn1	> 100 µM

* * *

# System: HL-60(TB) leukemia
# PROTOCOL: NCI tumour cell line growth inhibition, 48 h
Each entry below carries its reported TGI.

COMPOUND	TGI
COC1CC2CCC(C)C(O)(O2)C(=O)C(=O)N2CCCCC2C(=O)OC(C(C)CC2CCC(O)C(OC)C2)CC(=O)C(C)C=C(C)C(O)C(OC)C(=O)C(C)CC(C)/C=C/C=C/C=C1C (stereo not drawn)	23.6 µM
COC(=O)C(=O)OC1(C(C)=O)CC2(c3ccccc3)OC1(c1ccccc1)c1ccccc12 (stereo not drawn)	> 100 µM
Cc1ccc2c(=O)c3cccc(CC(=O)O)c3[nH]c2c1C	> 100 µM
COc1ccc(/C=C/C(=O)/C=C/c2ccc(OC)cc2)cc1	53.7 µM
CCC/C(=N/NC(=O)C(N)=O)C(CC)C(=O)CCC(=O)N(Cc1ccccc1)Cc1ccccc1 (stereo not drawn)	> 100 µM
O=C1SS(=O)c2ccccc21 (stereo not drawn)	> 100 µM
COc1ccc(C2CC(c3ccccc3)=Nc3c(-c4ccccc4)nnn32)cc1 (stereo not drawn)	> 100 µM
O=C(CC(C(=O)c1ccco1)c1ccsc1)c1ccco1 (stereo not drawn)	> 100 µM
O=C(CC1(O)C(=O)Nc2c(Cl)ccc(Cl)c21)c1ccc2ccccc2c1 (stereo not drawn)	4.04 µM
Cc1nc(Nc2ccccc2Cl)sc1C(=O)CC(=O)C(=O)Nc1c(Cl)cccc1Cl	33.6 µM
N[C@@H]1CCCC[C@H]1N.O=C([O-])C(=O)[O-].[Pt+4]	> 100 µM
CCN=C(NNc1ccc([N+](=O)[O-])cc1)P(=O)(OC(C)C)OC(C)C	> 100 µM
Cc1cc2nc(CCC(=O)O)c(=O)[nH]c2cc1C	> 100 µM
Nc1nc(Cl)c2ncn(Cc3ccc(CCl)cc3)c2n1	> 100 µM
COc1ccc2c(=O)c3ccoc3n(CC=C(C)C)c2c1	> 96.6 µM
O=C(c1ccco1)c1nc2cc(Cl)ccc2[n+]([O-])c1C(F)(F)F	46.8 µM
COc1cc(OC)c2c(=O)cc(-c3ccccc3F)[nH]c2c1	> 100 µM
NC(N)=N/N=C\c1cccc(OCc2ccccc2)c1	6.35 µM
CCOC(=O)C12CCC(=O)C=C1[C@@H](C)C(=O)CC2 (stereo partly drawn)	> 100 µM
CC(C)(C)N1C(C(=O)c2ccccc2)C1c1ccccc1 (stereo not drawn)	> 100 µM
CC(C)=CCNc1ncnc2nc[nH]c12	> 100 µM
CCOC(=O)c1[nH]c(Br)c(-c2ccc(Br)cc2)c1Br	0.596 µM
O=C1C(=O)c2ccccc2C(O)=C1CC=C(Br)Br	30.4 µM
CC(=O)NC(C)(C)C1CC=C(C)CC1 (stereo not drawn)	> 100 µM
CC1(C)N=C(N)N=C(N)N1c1ccc(OCCCCOc2ccc(S(=O)(=O)F)cc2)c(Cl)c1	13.7 µM
Cc1ccc(-n2c3c(c4c(CN(C)C)c(O)ccc42)CCc2ccccc2C3=O)cc1	24.5 µM
O=c1[nH]/c(=C/c2ccc(OCc3ccccc3)cn2)c(=O)[nH]/c1=C/c1ccc([N+](=O)[O-])cc1	> 100 µM
COc1cc(/C=C(\C#N)C(=O)c2ccccc2)ccc1O	> 100 µM

* * *

# Test system: SF-539 CNS
# PROTOCOL: NCI tumour cell line growth inhibition, 48 h
Overview of recorded TGI for various molecules

MOLECULE	READING UNIT	COMPARISON OPERATOR	TGI
C#CCC(Cc1cnc2nc(N)nc(N)c2n1)c1ccc(C(=O)N[C@@H](CCC(=O)O)C(=O)O)cc1 (stereo partly drawn)	µM	>	100
Nc1nc(N)c2c(n1)NC(=O)c1c(c3ccccc3n1Cc1ccc(Cl)cc1)C2	µM	=	44.8
COc1ccc(C2CC(c3ccccc3)=Nc3c(-c4ccccc4)nnn32)cc1 (stereo not drawn)	µM	>	100
O=c1nc2n(-c3ccc(Cl)cc3)c3ccc([N+](=O)[O-])cc3cc-2c(=O)[nH]1	µM	=	53.9
COc1cc(C2c3cc(O)c(OC)cc3C3OCC2C3CO)ccc1O (stereo not drawn)	µM	>	100
COc1cc(/C=C2\C[C@H]3[C@@H]4CC=C5C=C(N6CCCC6)CC[C@]5(C)[C@H]4CC[C@]3(C)C2=O)cc(OC)c1OC	µM	=	12.5
COc1ccc(/C=C\c2cc(OC)c(OC)c(OC)c2)cc1OC(=O)c1cccc(Cn2cc(CCOC(=O)[C@H](N)Cc3cn(C)c4ccccc34)nn2)c1	µM	=	0.272
N#Cc1c(NN)nc(NN)c(C#N)c1-c1ccccc1	µM	>	100

* * *

# Tested on: MDA-MB-435
# PROTOCOL: NCI tumour cell line growth inhibition, 48 h
Think of 20 µM as a floor: if TGI stands on it or above, it is true (1); beneath it, false (0).

COMPOUND	ANSWER LABEL
CC(C)(C)c1cc(C(C)(C)C)c(SS(=O)(=O)O)c(O)c1O	true (1)
Cc1cc2nc3c4cc(N)ccc4n(CCN(C)C)c3nc2cc1C	false (0)
O=C(CC(C(=O)c1cccs1)c1ccsc1)c1cccs1 (stereo not drawn)	true (1)
N[C@@H]1CCCC[C@H]1N.O=C([O-])C(=O)[O-].[Pt+4]	false (0)
CC(=O)NC(C)(C)C1CC=C(C)CC1 (stereo not drawn)	true (1)
CCCCCCCCCc1cc(-c2ccc(C=O)s2)sc1-c1ccc(C=O)s1	true (1)
O=C1CC(O)c2c(Br)sc(Br)c21 (stereo not drawn)	false (0)
CC1=C2C[C@H]3[C@@H](CC[C@@H]4CC(NS(C)(=O)=O)CC[C@@]43C)[C@@H]2CC[C@@]2(C1)O[C@@H]1C[C@H](C)CN[C@H]1[C@H]2C (stereo partly drawn)	true (1)
O=C(c1ccco1)c1nc2cc(Cl)ccc2[n+]([O-])c1C(F)(F)F	true (1)
O=C1C(Cl)=C(Nc2cccc(Cl)c2)C(=O)N1Cc1ccccc1Cl	false (0)
Cc1ccc2c(=O)c3cccc(CC(=O)O)c3[nH]c2c1C	true (1)
CCC(CO)Nc1nc(NCc2ccccc2O)c2ncn(C(C)C)c2n1 (stereo not drawn)	false (0)
O=C(Nc1cc(Cl)cc(Cl)c1)c1ccc(NC2=C(Cl)C(=O)N(Cc3ccc(Cl)cc3Cl)C2=O)cc1	true (1)
O=C1C(=O)c2ccccc2C(O)=C1CC=C(Br)Br	true (1)
C#CCC(Cc1cnc2nc(N)nc(N)c2n1)c1ccc(C(=O)N[C@@H](CCC(=O)O)C(=O)O)cc1 (stereo partly drawn)	true (1)
COc1ccc(C(=O)Cn2c(C(=O)/C=C/c3ccco3)nc3ccccc32)cc1	true (1)
COc1ccccc1CCN=C1NC(=O)/C(=C/c2ccc3ncccc3c2)S1	true (1)
O=C1c2ccccc2C(=O)c2c(Nc3ccc4c5c(cccc35)C(=O)c3ccccc3-4)cccc21	true (1)
FC(F)(Sc1ccccn1)c1nc2ccccc2o1	true (1)
COc1cc(C2c3cc(O)c(OC)cc3C3OCC2C3CO)ccc1O (stereo not drawn)	true (1)
c1ccc(N=C(Nc2ccccc2)N2CCCCC2)cc1	true (1)
COC(=O)c1c2c(c(C)[n+]([O-])c1C)C(=O)C=C(NCc1ccc(F)c(Cl)c1)C2=O	false (0)

* * *

# Test system: HOP-92 NSCLC
# PROTOCOL: NCI tumour cell line growth inhibition, 48 h
OBSERVED PROPERTY: TGI (µM)

COMPOUND	OBSERVED PROPERTY	COMPARISON OPERATOR	REPORTED VALUE
CC1(c2cccc3ccccc23)OC(=O)c2ccccc21 (stereo not given)	TGI	=	36.5
CCCCCCCCCCCCCC(=O)CC(=O)c1c(O)cccc1O	TGI	=	89.7
N[C@@H]1CCCC[C@H]1N.O=C([O-])C(=O)[O-].[Pt+4]	TGI	>	74
O=C(CN1CCN(CCCOc2c(-c3ccccc3)oc3ccccc3c2=O)CC1)Nc1ccc(Cl)cc1C(=O)c1ccccc1Cl	TGI	=	6.6
C#CCOc1c(C(=O)OCC)c(=O)n(C)c2ccccc12	TGI	>	100
